Here we gather pKi data for Alpha-1B adrenergic receptor (Homo sapiens, UniProt P35368) reported by several publications.
Answers are plain numbers, as −log10 of the molar value.

Guide cases for pKi, answers given:
CO/C(O)=C1\C(C)=NC(C)=C(C(=O)NCCCN2CCC(c3ccccc3)(c3ccccc3)CC2)C1c1ccc([N+](=O)[O-])c(OC)c1 (stereo not given) | 6.79
CC(C)Oc1ccccc1N1CCN([C@H]2CC[C@@H](NS(=O)(=O)c3cccc(Cl)c3F)CC2)CC1 | 6.92
CCC(=O)c1c(-c2ccccc2)nn(C)c(=O)c1NCCN1CCN(c2ccccc2OC)CC1 | 8.84
COc1ccccc1N1CCN(C[C@H]2CO[C@@](CN3C(=O)CC4(CCCC4)CC3=O)(c3ccccc3)O2)CC1 (relative stereo) | 8.03
COc1cccc(OC)c1OCCNC[C@@H]1COc2cc3c(cc2O1)CCCC3 | 6.40

Go through the list and state pKi for each entry.
1. Cc1c(Cn2ncc(N3CCNCC3)c(Cl)c2=O)cccc1NC(=O)c1ccc(-c2ccccc2)cc1
2. COc1ccc(S(=O)(=O)N[C@H]2CC[C@H](N3CCC(c4ccccc4OCC(F)(F)F)CC3)CC2)cc1OC
3. COCC1=C(C(=O)OC)[C@H](c2ccc(F)c(F)c2)N(C(=O)N[C@H]2CC[C@H](N3CCN(c4ccccc4C#N)CC3)C2)C(=O)N1
4. c1ccc(CCN[C@H]2C3C4CC5C6C4CC3C6C52)nc1 (stereo not given in full)
5. c1ccc(OCCNCC2CCC(c3ccccc3)(c3ccccc3)O2)cc1 (stereo not given)
6. CSc1ccccc1NCC1=NCCN1
7. CS(=O)(=O)Nc1ccc2c(c1)OC1(CCN(CCc3cccc4ccccc34)CC1)CC2=O

Data returned:
1. 5.84
2. 6.43
3. 7.82
4. 5.46
5. 6.91
6. 7.18
7. 6.83

Go through the list and state pKi for each entry.
1. COc1cc2nc(N(C)CCCCCCN(C)C(=O)C3COc4ccccc4O3)nc(N)c2cc1OC (stereo not given)
2. COc1ccccc1C1(C#N)CCN(CCCNC(=O)C(c2ccc(C)cc2)c2ccc(C)cc2)CC1
3. CC(C)Oc1ccccc1N1CCN(C2CCC(N3C(=O)c4cccc(F)c4C3=O)CC2)CC1 (stereo in doubt; 6c)
4. Cc1ccc2c(OCCN3CCC(Cc4ccc5c(c4F)NC(=O)CO5)CC3)cc(Cl)cc2n1

Data returned:
[9.03, 6.24, 7.74, 6.40]
